# Test system: ATP;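 also: ATP exposure 15 min at 22 °C before imaging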
# method.description: switch fluorescence ratio, 500 uM ATP over buffer (Cy3 cluster intensity, sum of 5 cycles each) (fold (ratio)); higher = stronger signal-on switching upon ATP binding; sequences stand for … in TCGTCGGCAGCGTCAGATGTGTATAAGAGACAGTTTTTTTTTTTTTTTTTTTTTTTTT…TC
# measurement.setup: aptamer strand: ATP DNA aptamer (quencher-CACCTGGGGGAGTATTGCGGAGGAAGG + anchor), 100 nM annealed; ATP concentration: 500 uM
metric.name: switch fluorescence ratio

See these solved cases before continuing.
[[record]]
residue_string = "GGACGGCCGC"
metric_name = "switch fluorescence ratio"
observed_result = 1.06

[[record]]
residue_string = "GGGGGCAAGC"
metric_name = "switch fluorescence ratio"
observed_result = 1.25

[[record]]
residue_string = "AAAGGCCATG"
metric_name = "switch fluorescence ratio"
observed_result = 1.02

[[record]]
residue_string = "CAAAGTTCGC"
metric_name = "switch fluorescence ratio"
observed_result = 0.984

[[record]]
residue_string = "CTCTTGGGGC"
metric_name = "switch fluorescence ratio"
observed_result = 0.987


We next turn to a different sequence, shown below.
For `TTGCGAGAGA` the sequence record lists switch fluorescence ratio as 0.993
